EXPERIMENTAL_SYSTEM: HLA-A*02:01 (Homo sapiens, UniProt P04439, D140Y/D185E/D98H/E176V/E277Q/G131W/G231S/I119V/I121R/I166T/I218V/L300P/L318F/N151K/N90K/P208A/P217A/Q86G/Q94H/R138H/R169H/T345S)
ASSAY_METHOD_TEXT: MHC binding assay (UV-ligand exchange, ELISA of stabilized MHC complexes)
EXPERIMENTAL_CONTEXT: MHC class I binding score; binding to HLA-A*02:01 ranged by peptide exchange yield (UV-ligand exchange, ELISA)
READOUT_TYPE: Peptide exchange

SUBSTANCE	READOUT_TYPE	RESULT
559 (VTVPPGPSL; listed as Homo sapiens) [compound 559]	Peptide exchange	″++″ (≥20% = ++)
356 (KLLGKLPEL; listed as Homo sapiens) [compound 356]	Peptide exchange	″+++″ (≥50% = +++)
12 (SLWPDPMEV; listed as Homo sapiens) [compound 12]	Peptide exchange	″+++″ (≥50% = +++)
151 (KILQQLVTL; listed as Homo sapiens) [compound 151]	Peptide exchange	″+++″ (≥50% = +++)
315 (YLQDVVEQA; listed as Homo sapiens) [compound 315]	Peptide exchange	″+++″ (≥50% = +++)
11 (KIFEMLEGV; listed as Homo sapiens) [compound 11]	Peptide exchange	″+++″ (≥50% = +++)
234 (ALMEDTGRQML; listed as Homo sapiens) [compound 234]	Peptide exchange	″++″ (≥20% = ++)
200 (LLFGSVQEV; listed as Homo sapiens) [compound 200]	Peptide exchange	″+++″ (≥50% = +++)
480 (ALLEDSCHYL; listed as Homo sapiens) [compound 480]	Peptide exchange	″+++″ (≥50% = +++)
508 (ILAQEQLVVGV; listed as Homo sapiens) [compound 508]	Peptide exchange	″+++″ (≥50% = +++)
541 (SMLEPVPEL; listed as Homo sapiens) [compound 541]	Peptide exchange	″+++″ (≥50% = +++)
358 (ALDEYTSEL; listed as Homo sapiens) [compound 358]	Peptide exchange	″++++″ (≥75% = ++++)
255 (VLASYNLTV; listed as Homo sapiens) [compound 255]	Peptide exchange	″+++″ (≥50% = +++)
550 (FLYDEIEAEVNL; listed as Homo sapiens) [compound 550]	Peptide exchange	″+++″ (≥50% = +++)
166 (YLNHLEPPV; listed as Homo sapiens) [compound 166]	Peptide exchange	″+++″ (≥50% = +++)
168 (KILDADIQL; listed as Homo sapiens) [compound 168]	Peptide exchange	″++++″ (≥75% = ++++)
205 (SLYPGTETMGL; listed as Homo sapiens) [compound 205]	Peptide exchange	″+++″ (≥50% = +++)
361 (ALYELEGTTV; listed as Homo sapiens) [compound 361]	Peptide exchange	″+++″ (≥50% = +++)
126 (VLAYFLPEA; listed as Homo sapiens) [compound 126]	Peptide exchange	″++++″ (≥75% = ++++)
305 (SIANFSEFYV; listed as Homo sapiens) [compound 305]	Peptide exchange	″++++″ (≥75% = ++++)
400 (SLLTEQDLWTV; listed as Homo sapiens) [compound 400]	Peptide exchange	″++″ (≥20% = ++)
590 (SLIEKLWQT; listed as Homo sapiens) [compound 590]	Peptide exchange	″++″ (≥20% = ++)
137 (TLVLTLPTV; listed as Homo sapiens) [compound 137]	Peptide exchange	″++++″ (≥75% = ++++)
595 (VLLSIYPRV; listed as Homo sapiens) [compound 595]	Peptide exchange	″+++″ (≥50% = +++)
596 (ALLDQTKTLAESAL; listed as Homo sapiens) [compound 596]	Peptide exchange	″+++″ (≥50% = +++)
282 (LLADVVPTT; listed as Homo sapiens) [compound 282]	Peptide exchange	″+++″ (≥50% = +++)
619 (ALQDRVPLA; listed as Homo sapiens) [compound 619]	Peptide exchange	″+++″ (≥50% = +++)
518 (KLNAEVACV; listed as Homo sapiens) [compound 518]	Peptide exchange	″+++″ (≥50% = +++)
47 (ILLSVPLLVV; listed as Homo sapiens) [compound 47]	Peptide exchange	″++″ (≥20% = ++)
